- Study target: human Opioid Receptor Delta 1 (Opiate D1), OPRD1 (gene 4985)
- Assay details: NVS_GPCR_hOpiate_D1: NovaScreen (NVS) G Protein-Coupled Receptor Assay for human Opioid Receptor Delta 1 (Opiate D1) (AID 2283280)
Results filed as inconclusive are left out. The source made the active and inactive calls. Rule for the calls: active = hit-call score of the fitted dose curve at least 0.9, where 1 is the maximum; inconclusive = response in the unintended direction; inactive = score below 0.9.
Answer each item with its documented AC50.

Below are 4 compounds. Give each one its AC50.
1. NCc1cccc(C2CCN(C(=O)c3ccc(C#Cc4ccccc4F)o3)CC2)c1
2. Cc1cc(F)ccc1-c1cc(N2CC[C@@H](O)[C@H]2CO)ncc1N(C)C(=O)C(C)(C)c1cc(C(F)(F)F)cc(C(F)(F)F)c1
3. CCN(Cc1cccnc1)C(=O)c1cccc(Cl)c1[C@]1(C)C(=O)N(Cc2ccc(OC)cc2OC)c2ccc(Cl)cc21
4. CCOC(=O)O[C@H](C)OC(=O)c1ccc2c(c1)cc(C(=O)NC1CCN(C(C)C)CC1)n2Cc1cc(-c2ccc(Cl)s2)on1

# output
1. 10.2 µM (active)
2. 15.8 µM (active)
3. 2.01 µM (active)
4. 3.36 µM (active)

---

- Read-out: Monokine induced gamma interferon (MIG), CXCL9 (gene 4283)
- Assay details: BSK_CASM3C_MIG: BioMAP Diversity Plus: CASM3C Assay for Monokine induced gamma interferon (MIG) Biomarker Activity (AID 2283048);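 note: MIG protein level measured by ELISA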
- Experimental parameters: primary human coronary artery smooth muscle cells; actives raise or lower the signal
Activity calls are given as the source filed them. How the source made its calls: active means hit-call score of the fitted dose curve at least 0.9, where 1 is the maximum; inactive means score below 0.9.
Pick one: TRUE = active, FALSE = inactive

• O=C1CCC(C2CCCCC2)CC1 = FALSE
• c1ccc2ccccc2c1 = FALSE
• CC(C)(C)c1csc(-c2cc3cc(OCc4ccccc4CC(=O)O)ccc3o2)n1 = FALSE

# input Can you look up the reported call for CCN(Cc1cccnc1)C(=O)c1cccc(Cl)c1[C@]1(C)C(=O)N(Cc2ccc(OC)cc2OC)c2ccc(Cl)cc21 for me?
# output FALSE

# input What do you get for Cc1occc1C(=O)Nc1ccc(C(=O)N2CCC(F)(F)/C(=C\C(=O)N3CCC(N4CCCCC4)CC3)c3ccccc32)cc1 ?
# output FALSE

# input What do you get for O=C1c2ccccc2C(=O)N1CCc1noc(-c2ccc(CN3CCCCCC3)s2)n1 ?
# output FALSE

# input What do you get for CN1C(=O)N(c2ccccc2Br)Cc2cnc(Nc3ccc4c(c3)OCC(CO)O4)nc21 (stereo unspecified) ?
# output TRUE

# input What do you get for CCCCCCCCCCCCO ?
# output TRUE

# input What do you get for O=C(Nc1ccc(Cl)cc1)Nc1ccc(Cl)c(Cl)c1 ?
# output FALSE

---

- Read-out: matrix metalloproteinase-10 (MMP10), MMP10 (gene 4319)
- Assay details: LTEA_HepaRG_MMP10: Life Technologies and Expression Analysis (LTEA) Assay for matrix metalloproteinase-10 (MMP10) using HepaRG (AID 2283517)
- Experimental parameters: mRNA level, 48 h; actives raise or lower the signal
Active and inactive are the calls of the source. How the source made its calls: active means hit-call score of the fitted dose curve at least 0.9, where 1 is the maximum; inactive means score below 0.9.
Measured property: AC50

- COc1ccc2cc(S(=O)(=O)N[C@H](CC(=O)N[C@H](Cc3ccc(CN4[C@H](C)CCC[C@@H]4C)cc3)C(=O)N(C)C(C)C)c3ccc4c(c3)OCO4)ccc2c1: 24.3 µM (active)
- CCCCCCCCOC(=O)c1cc(O)c(O)c(O)c1: inactive
- C[C@]12CC[C@@H]3c4ccc(O)cc4CC[C@H]3[C@@H]1CC[C@H]2O: inactive
- Cc1cn([C@H]2C[C@H](N=[N+]=[N-])[C@@H](CO)O2)c(=O)[nH]c1=O: inactive
- Cc1cc2c(cc1C(F)(F)F)N(C(=O)Nc1ccc(Oc3cccnc3C)nc1)CC2: 26.8 µM (active)

Below are 5 molecules. Give each one its AC50.
1. OC12N=C(c3ccccc3)SC1Cc1cc(Cl)ccc12 (stereo not given)
2. Cc1ccc(C(C)C)cc1
3. Oc1ccccc1
4. C[C@]12CC[C@@H]3c4ccc(O)cc4CC[C@H]3[C@@H]1CCC2=O
5. CN1C(=O)N(c2ccccc2Br)Cc2cnc(Nc3ccc4c(c3)OCC(CO)O4)nc21 (stereo not given)

# output
["72.8 µM (active)", "inactive", "inactive", "inactive", "inactive"]

---

- Study target: human Phosphodiesterase 4A1 (PDE4A1), PDE4A (gene 5141) (UniProt P27815)
- Sequence (P27815 whole entry, looked up): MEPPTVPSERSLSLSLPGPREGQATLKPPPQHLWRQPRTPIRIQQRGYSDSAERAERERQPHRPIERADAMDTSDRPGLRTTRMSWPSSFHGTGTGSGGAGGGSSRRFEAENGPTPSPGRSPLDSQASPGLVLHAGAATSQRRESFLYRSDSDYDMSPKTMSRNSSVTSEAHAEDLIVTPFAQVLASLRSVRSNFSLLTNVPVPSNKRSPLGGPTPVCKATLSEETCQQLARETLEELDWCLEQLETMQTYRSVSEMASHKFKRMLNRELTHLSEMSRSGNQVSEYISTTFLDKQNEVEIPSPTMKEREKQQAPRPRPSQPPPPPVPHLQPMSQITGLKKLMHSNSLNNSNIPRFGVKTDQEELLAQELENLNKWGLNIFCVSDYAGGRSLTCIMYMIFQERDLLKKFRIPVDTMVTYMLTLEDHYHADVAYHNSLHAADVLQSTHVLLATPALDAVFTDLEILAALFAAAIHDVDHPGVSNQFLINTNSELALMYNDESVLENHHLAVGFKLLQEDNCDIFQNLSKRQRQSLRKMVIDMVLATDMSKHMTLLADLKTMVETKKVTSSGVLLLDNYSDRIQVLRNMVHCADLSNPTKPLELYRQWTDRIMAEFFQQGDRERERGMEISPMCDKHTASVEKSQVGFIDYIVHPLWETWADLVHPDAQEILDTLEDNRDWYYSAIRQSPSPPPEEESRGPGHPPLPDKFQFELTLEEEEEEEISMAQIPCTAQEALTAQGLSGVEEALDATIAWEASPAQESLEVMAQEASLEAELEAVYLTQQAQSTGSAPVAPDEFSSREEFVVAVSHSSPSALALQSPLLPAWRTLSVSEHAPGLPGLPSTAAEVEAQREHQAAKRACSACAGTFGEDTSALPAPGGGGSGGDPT
- Assay details: NVS_ENZ_hPDE4A1: NovaScreen (NVS) Enzymatic Assay for human Phosphodiesterase 4A1 (PDE4A1) (AID 2283191)
- Experimental: NVS_ENZ_hPDE4A1 is a biochemical, single-readout assay that uses extracted gene-proteins in a cell-free assay. Measurements were taken 1 hour after chemical dosing in a 384-well plate.NVS_ENZ_hPDE4A1 is one of one assay component(s) measured or calculated from the NVS_ENZ_hPDE4A1 assay. […] This assay endpoint, NVS_ENZ_hPDE4A1, was analyzed in the positive analysis fitting direction relative to DMSO as the negative control and baseline of activity. […]
Records with an inconclusive call do not appear. The source made the active and inactive calls. The calls were made as follows: active = hit-call score of the fitted dose curve at least 0.9, where 1 is the maximum; inconclusive = response in the unintended direction; inactive = score below 0.9.
Measured property: AC50

- COc1cccc([C@H](O)C2CCN(CCc3ccc(F)cc3)CC2)c1OC: inactive
- CN1C(=O)N(c2ccccc2Br)Cc2cnc(Nc3ccc4c(c3)OCC(CO)O4)nc21 (stereo not given): 6.38 µM (active)
- CCN(CC)C(=O)c1cc(S(=O)(=O)Cc2ccccc2)c(N2CCC(c3ccccc3)CC2)cc1N(CC)CCN(C)C: 9.38 µM (active)
- CC/C(=C(/CC)c1ccc(O)cc1)c1ccc(O)cc1: inactive

Could you now look at the following compound, please?
# input Which measured AC50 value corresponds to O=C(Nc1ccc(Cl)cc1)Nc1ccc(Cl)c(Cl)c1 ?
# output inactive

---

- Read-out: solute carrier (SLC22A1), SLC22A1 (gene 6580)
- Assay details: LTEA_HepaRG_SLC22A1: Life Technologies and Expression Analysis (LTEA) Assay for solute carrier (SLC22A1) using HepaRG (AID 2283524)
- Experimental parameters: mRNA level, 48 h; actives raise or lower the signal
Calls of active or inactive are those of the source. How the source made its calls: active means hit-call score of the fitted dose curve at least 0.9, where 1 is the maximum; inactive means score below 0.9.
Pick one: true = active, false = inactive

• CCCC(=O)OCCC(C)C = false
• CN(C[C@@H](CC[N+]12CCC(C3CCCCC3)(CC1)CC2)c1ccc(Cl)c(Cl)c1)C(=O)c1cc(C(F)(F)F)cc(C(F)(F)F)c1 = true
• COc1cc(C(=O)NC2CCN(C)CC2)ccc1Nc1ncc2c(n1)N(C1CCCC1)CC(F)(F)C(=O)N2C = true
• CCOC(=O)O[C@H](C)OC(=O)c1ccc2c(c1)cc(C(=O)NC1CCN(C(C)C)CC1)n2Cc1cc(-c2ccc(Cl)s2)on1 = false

# input Can you look up the reported call for CC[C@@H]1C[C@H](N(Cc2cc(C(F)(F)F)cc(C(F)(F)F)c2)C(C)=O)c2cc(C(F)(F)F)ccc2N1C(=O)OC(C)C for me?
# output false

# input What do you get for Cc1cc2c(cc1C(F)(F)F)N(C(=O)Nc1ccc(Oc3cccnc3C)nc1)CC2 ?
# output true

# input What do you get for C[C@]12CC[C@@H]3c4ccc(O)cc4CC[C@H]3[C@@H]1CC[C@H]2O ?
# output true

# input What do you get for CCCCCCCC[Si](OCC)(OCC)OCC ?
# output false

# input What do you get for CN1C(=O)N(c2ccccc2Br)Cc2cnc(Nc3ccc4c(c3)OCC(CO)O4)nc21 (stereo not given) ?
# output true

# input What do you get for c1ccc2n[nH]nc2c1 ?
# output false

---

- Assay details: APR_HepG2_p53Act_72hr: Apredica 72-hour HepG2 Assay for p53 Activation (AID 2282923);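 note: average cellular p53 protein immunofluorescence intensity in HepG2 cells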
- Experimental parameters: high-content imaging, actives raise or lower the signal
- Experimental: APR_HepG2_72hr is a cell-based, multiplexed-readout assay that uses HepG2, a human liver cell line, with measurements taken at 72 hours after chemical dosing in a 384-well plate.APR_HepG2_p53Act_72hr is one of 10 assay component(s) measured or calculated from the APR_HepG2_72hr assay. […] This assay endpoint, APR_HepG2_p53Act_72hr, was analyzed with bidirectional fitting relative to DMSO as the negative control and baseline of activity. […]
Calls of active or inactive are those of the source. The calls were made as follows: active = hit-call score of the fitted dose curve at least 0.9, where 1 is the maximum; inactive = score below 0.9.
Pick one: 1 for active, 0 for inactive

Use the examples below as a reference point.
- O=C1CCC(C2CCCCC2)CC1: 0
- Oc1ccc2ccccc2c1: 0
- CC(C)(C)c1csc(-c2cc3cc(OCc4ccccc4CC(=O)O)ccc3o2)n1: 0

# input Can you look up the reported call for CCN(Cc1cccnc1)C(=O)c1cccc(Cl)c1[C@]1(C)C(=O)N(Cc2ccc(OC)cc2OC)c2ccc(Cl)cc21 for me?
# output 1

# input What do you get for CN(C[C@@H](CC[N+]12CCC(C3CCCCC3)(CC1)CC2)c1ccc(Cl)c(Cl)c1)C(=O)c1cc(C(F)(F)F)cc(C(F)(F)F)c1 ?
# output 1

# input What do you get for COc1cc(C(=O)NC2CCN(C)CC2)ccc1Nc1ncc2c(n1)N(C1CCCC1)CC(F)(F)C(=O)N2C ?
# output 0

# input What do you get for CCN(CC)C(=O)c1cc(S(=O)(=O)Cc2ccccc2)c(N2CCC(c3ccccc3)CC2)cc1N(CC)CCN(C)C ?
# output 0

# input What do you get for CCCCCCCCCC(=O)O ?
# output 0

# input What do you get for Cc1cccc2ccccc12 ?
# output 0

# input What do you get for Cc1ncc(CO)c(CO)c1O ?
# output 0

# input What do you get for CC(C)(c1cc(Br)c(O)c(Br)c1)c1cc(Br)c(O)c(Br)c1 ?
# output 1
